# Assay Protocol: melting temperature; fluorescence melt of hairpins on a sequencing array, two-state fit, raised by 9.35 °C to match UV melts
# Measurement Context: sodium 0.088 M
Each record here notes measured Tm.
# output: bare number, implied unit °C

Use these answered entries as a reference point.
GCGTTGCGAAAGCTTCGC (((..((....))..)))    64
GCGTAAGGAAACTTACGC (((((((....)))))))    63.4
GCTAGCCGAAAGGCAGC (((.(((....))))))    58.1

Reported Tm for GATCATTTCGATGATC ((((((....)))))) was 49.2

Reported Tm for GACGGTGGAAACACCATC ((.((((....)))).)) was 36.5

Reported Tm for GCGTGCACACGC ((((....)))) was 68

Reported Tm for GCGCGGCGAAAGCGGGGC ((.(.((....)).).)) was 64.4

Reported Tm for GCGAGTAATCGC ((((....)))) was 58.6

Reported Tm for CGACGCGGAAACGCTTCG (((.(((....))).))) was 50.5

Reported Tm for GAAGCTGGAAACAGCTTC (((((((....))))))) was 62.7

Reported Tm for CGAGCGGAAACGCAGTCG ((((((....)))..))) was 38.1

Reported Tm for GCCTAGGAAACTAGGC ((((((....)))))) was 58.7
